Reported IC50 values for the following compounds.
Molecular target: PRMT1 (Homo sapiens)
Sequence (Q99873 whole entry, species assumed): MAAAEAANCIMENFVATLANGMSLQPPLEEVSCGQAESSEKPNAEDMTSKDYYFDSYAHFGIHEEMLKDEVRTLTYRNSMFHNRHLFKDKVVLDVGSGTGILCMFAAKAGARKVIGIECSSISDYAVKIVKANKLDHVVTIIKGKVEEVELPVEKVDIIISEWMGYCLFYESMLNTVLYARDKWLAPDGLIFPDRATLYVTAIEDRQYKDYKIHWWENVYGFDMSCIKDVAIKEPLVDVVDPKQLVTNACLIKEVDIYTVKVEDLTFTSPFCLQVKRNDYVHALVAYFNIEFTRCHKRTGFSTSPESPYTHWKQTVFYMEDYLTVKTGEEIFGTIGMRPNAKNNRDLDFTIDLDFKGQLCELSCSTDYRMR
Test: scintillation proximity assay (SPA) of PRMT1 methyltransferase activity
Format: biochemical
Details: SPA, concentration-dependent; read-out: IC50 PRMT1 (converted)

Example results:
| chemical_smiles | experimental_target | test_value |
| --- | --- | --- |
| CC(C)[C@H](N)C(=O)OCc1cn(C[C@H]2O[C@@H](n3cnc4c(N)ncnc43)[C@H](O)[C@@H]2O)nn1 | PRMT1 (Homo sapiens) | 43.5 µM |
| COCc1cn(C[C@H]2O[C@@H](n3cnc4c(N)ncnc43)[C@H](O)[C@@H]2O)nn1 | PRMT1 (Homo sapiens) | > 1000 µM |
| Nc1ncnc2c1ncn2[C@@H]1O[C@H](Cn2cc(C[C@H](N)C(=O)O)nn2)[C@@H](O)[C@H]1O | PRMT1 (Homo sapiens) | > 200 µM |

In: I have this compound here, `Nc1ncnc2c1ncn2[C@@H]1O[C@H](Cn2cc(CO)nn2)[C@@H](O)[C@H]1O` , and I need its recorded IC50.
Out: > 1000 µM

In: Name the reported IC50 value associated with the compound `CC(C)(C)c1cn(C[C@H]2O[C@@H](n3cnc4c(N)ncnc43)[C@H](O)[C@@H]2O)nn1`
Out: > 1000 µM

----------
Molecular target: PRMT5 (Homo sapiens)
Construct: His-tag; made in house; host or cells: Sf9 insect cells (Bac-to-Bac baculovirus)
Sequence (O14744 whole entry): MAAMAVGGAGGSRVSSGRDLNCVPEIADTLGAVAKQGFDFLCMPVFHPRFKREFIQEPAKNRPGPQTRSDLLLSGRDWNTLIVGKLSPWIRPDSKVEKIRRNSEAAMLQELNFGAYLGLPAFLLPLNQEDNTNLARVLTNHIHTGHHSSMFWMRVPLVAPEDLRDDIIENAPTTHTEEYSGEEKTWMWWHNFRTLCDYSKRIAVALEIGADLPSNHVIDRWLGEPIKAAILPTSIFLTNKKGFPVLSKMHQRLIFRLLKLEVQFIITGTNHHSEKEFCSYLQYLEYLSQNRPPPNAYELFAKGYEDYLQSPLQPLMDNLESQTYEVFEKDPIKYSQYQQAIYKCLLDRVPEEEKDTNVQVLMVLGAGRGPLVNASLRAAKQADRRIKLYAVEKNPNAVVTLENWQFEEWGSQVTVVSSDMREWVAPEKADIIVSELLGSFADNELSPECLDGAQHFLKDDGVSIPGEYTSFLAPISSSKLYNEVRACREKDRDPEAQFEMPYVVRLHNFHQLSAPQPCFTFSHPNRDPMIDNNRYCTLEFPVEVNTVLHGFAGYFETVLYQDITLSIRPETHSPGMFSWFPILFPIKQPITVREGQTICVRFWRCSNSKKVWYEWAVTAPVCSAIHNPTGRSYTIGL
Sequence (Q9BQA1 whole entry partner): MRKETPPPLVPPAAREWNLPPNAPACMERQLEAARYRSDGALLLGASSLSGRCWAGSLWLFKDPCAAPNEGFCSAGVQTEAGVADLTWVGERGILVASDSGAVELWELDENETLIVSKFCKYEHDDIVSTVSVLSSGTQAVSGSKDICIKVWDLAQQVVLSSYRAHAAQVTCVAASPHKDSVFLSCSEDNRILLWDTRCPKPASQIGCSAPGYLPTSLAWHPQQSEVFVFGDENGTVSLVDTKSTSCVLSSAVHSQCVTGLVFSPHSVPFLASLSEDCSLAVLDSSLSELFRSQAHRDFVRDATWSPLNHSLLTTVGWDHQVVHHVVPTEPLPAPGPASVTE
Assay: scintillation proximity assay (SPA) of PRMT5 methyltransferase activity
Assay type: biochemical
Conditions: 0.5 h; remaining activity of the enzyme; single point SPA test, inhibitor 10 μM; 0.5 μM H4(1–20)K20biotin, 0.5 μM 3H-SAM; read-out: Relative Activity of PRMT5 at 10 μM
readout_type: remaining activity at 10 µM (%)

# example entries with known answers
| molecule | remaining activity at 10 µM [%] |
| --- | --- |
| CCC(=O)Oc1ccc(CCc2cn(C[C@H]3O[C@@H](n4cnc5c(N)ncnc54)[C@H](O)[C@@H]3O)nn2)cc1OC(=O)C(C)C [Compound 17] | 56 |
| Nc1cc2c(cc1F)OCC(=O)N2Cc1cn(C[C@H]2O[C@@H](n3cnc4c(N)ncnc43)[C@H](O)[C@@H]2O)nn1 [Compound 26] | 83 |
| Nc1ncnc2c1ncn2[C@@H]1O[C@H](Cn2cc(CCCCC(=O)O)nn2)[C@@H](O)[C@H]1O [Compound 13] | 57 |
| Nc1ncnc2c1ncn2[C@@H]1O[C@H](Cn2cc(C[C@H](NC(=O)OCC3c4ccccc4-c4ccccc43)C(=O)O)nn2)[C@@H](O)[C@H]1O [Compound 18] | 56 |
| COC(=O)c1ccc(CNCc2cn(C[C@H]3O[C@@H](n4cnc5c(N)ncnc54)[C@H](O)[C@@H]3O)nn2)cc1 [Compound 22] | 30 |
| Nc1ncnc2c1ncn2[C@@H]1O[C@H](Cn2cc(CNC(=O)Nc3ccc(Cl)cc3)nn2)[C@@H](O)[C@H]1O [Compound 23] | 70 |
| CC(C)(C)OC(=O)NCC(=O)NCc1cn(C[C@H]2O[C@@H](n3cnc4c(N)ncnc43)[C@H](O)[C@@H]2O)nn1 [Compound 25] | 72 |
| Nc1ncnc2c1ncn2[C@@H]1O[C@H](Cn2cc(CCCC(=O)O)nn2)[C@@H](O)[C@H]1O [Compound 12] | 73 |

[A] [N-]=[N+]=NC[C@H]1O[C@@H](n2cnc3c(N)ncnc32)[C@H](O)[C@@H]1O [Compound 1, 5′-azido-5′-deoxyadenosine]
[B] Nc1ncnc2c1ncn2[C@@H]1O[C@H](Cn2cc(CNC(=O)c3ccccc3)nn2)[C@@H](O)[C@H]1O [Compound 15]
In: Min remaining activity at 10 µM? A | B // respond with label for picked entry
Out: A
(A: 48%, B: 94.2%)

[A] NCc1cn(C[C@H]2O[C@@H](n3cnc4c(N)ncnc43)[C@H](O)[C@@H]2O)nn1 [Compound 6]
[B] Nc1ncnc2c1ncn2[C@@H]1O[C@H](Cn2cc(CNCC(=O)Nc3ccccc3F)nn2)[C@@H](O)[C@H]1O [Compound 24]
In: Between the entries labelled A and B , which has a larger remaining activity at 10 µM value on record? Give the label of your selection.
Out: A
(A: 61%, B: 40%)

Cited source: paper PMC9228412
